Recorded values, source PubChem BioAssay (Tox21).

- Protocol text: qHTS assay to identify small molecule antagonists of the estrogen related receptor (ERR) signaling pathway from Tox21 library (AID 1224848); further: nearly all actives have a fitted effect of over 50% in size
- Settings: ERR reporter cell line, luciferase antagonist mode, 18 h; series mostly up to 92.4 µM
Records with an inconclusive call do not appear. The source made the active and inactive calls. The call rests on the fitted dose curve; in most records, active means well fitted inhibition curve with a large enough effect in the repeat runs; inconclusive means weak or mixed curves; inactive means no such curve, though single readings can be large or run the other way.
Allowed answers: 1 for active, 0 for inactive

Look over these answered cases.
Molecule	Category
CN(C)c1ccc(N=O)cc1	0
CCOC(C(=O)OCCN(C)C)(c1ccccc1)c1ccccc1	0
Nc1cc(Cl)cc(C(=O)O)c1Cl	0
CCCSP(=S)(OCC)Oc1ccc(SC)cc1 (centres undefined)	0
CC(C)(C)NCC(O)c1cc(Cl)c(N)c(C(F)(F)F)c1 (centres undefined)	0
Oc1cccc(Cl)c1	0
O=[N+]([O-])/C=C/c1ccccc1	1
N#CC(C#N)=C(C#N)C#N	0
O=C(NCNC(=O)NC1C(=O)NC(=O)N1CO)NC1C(=O)NC(=O)N1CO (centres undefined)	0
C=CCOCC1CO1 (centres undefined)	0

Entry C1CS1 : call = ? 0

Entry O=C=NC1CCCCC1 : call = ? 0

Entry C=CCc1ccccc1O : call = ? 0

Entry CCOC(=O)c1cncn1C(C)c1ccccc1 (centres undefined) : call = ? 0

###

- Protocol text: qHTS assay for identifying genotoxic compounds that show differential cytotoxicity against isogenic chicken DT40 cell lines with known DNA damage response pathways - Rad54/Ku70 mutant cell line (AID 743015); further: nearly all actives have a fitted effect of over 60% in size
- Settings: DT40 Rad54/Ku70 mutant viability, CellTiter-Glo, 40 h; series mostly up to 66.8 µM
Results filed as inconclusive are left out. Active and inactive are the calls of the source. Calls come from the whole dose curve; as a rule, active = well fitted cell-killing curve with a large enough effect in the repeat runs; inconclusive = weak or mixed curves; inactive = no such curve, though single readings can be large or run the other way.
Allowed answers: active, inactive

Look over these answered cases.
Compound	Category
Cc1ccccc1	inactive
CN(C)C(=O)Nc1cccc(OC(=O)NC(C)(C)C)c1	inactive
COc1cc(CC(C)N)c(OC)cc1Br (centres undefined)	active

Entry CCC(C)Cl (centres undefined) : call = ? inactive

###

- Protocol text: qHTS RealTime-Glo MT Cell Viability Assay in HepG2 cells - 40 hour (AID 1224870); further: nearly all actives have a fitted effect of over 50% in size
- Settings: RealTime-Glo luminescence; series mostly up to 76.8 µM
Records with an inconclusive call do not appear. The source made the active and inactive calls. The call rests on the fitted dose curve; in most records, active means well fitted cell-killing curve with a large enough effect in the repeat runs; inconclusive means weak or mixed curves, or effect the other way; inactive means flat fitted curve, though single readings scatter.
Allowed answers: 1.0 (active), 0.0 (inactive)

Look over these answered cases.
Compound	Category
CN1C(=O)CN=C(c2ccccc2)c2cc([N+](=O)[O-])ccc21	0.0
CC(C)(C)NCC(O)c1cc(Cl)c(N)c(C(F)(F)F)c1 (stereo not drawn)	0.0
[Cl-].[Cl-].[Hg+2]	1.0

Entry CC(C)(c1ccccc1)c1cc(-n2nc3ccccc3n2)c(O)c(C(C)(C)c2ccccc2)c1 : call = ? 0.0

Entry CCOP(=S)(S)OCC : call = ? 0.0

Entry CCOC(=O)c1cncn1C(C)c1ccccc1 (stereo not drawn) : call = ? 0.0

Entry O=C(O)C(Cl)(Cl)Br : call = ? 0.0

Entry CCOC(C(=O)OCCN(C)C)(c1ccccc1)c1ccccc1 : call = ? 0.0

Entry CC1(C)CC(=O)CC(C)(C)N1[O] : call = ? 0.0

Entry FC(Cl)(Cl)C(F)(Cl)Cl : call = ? 0.0

Entry C=CC(=O)OCC : call = ? 0.0

Entry COC1=CC(=O)O[C@@H](/C=C/c2ccc3c(c2)OCO3)C1 : call = ? 0.0

Entry O=C(O)C(O)C(O)C(=O)O (stereo not drawn) : call = ? 0.0

Entry CN(C)c1ccc(N=O)cc1 : call = ? 1.0

Entry COc1ccc(C(=O)c2c(C)n(CCN3CCOCC3)c3ccccc23)cc1 : call = ? 0.0

Entry O=C(Cc1ccccc1)OCCc1ccccc1 : call = ? 0.0

Entry C1CCNCC1 : call = ? 0.0

Entry O=C=NC1CCCCC1 : call = ? 0.0

Entry OC[P+](CO)(CO)CO : call = ? 0.0

Entry C1CS1 : call = ? 0.0

Entry CCCN(CCC)C(=O)Cc1c(-c2ccc(Cl)cc2)nc2ccc(Cl)cn12 : call = ? 0.0

Entry O=C(O)c1ccc(=O)[nH]c1 : call = ? 0.0

Entry CC(C)(C)OOC(C)(C)CCC(C)(C)OOC(C)(C)C : call = ? 0.0

Entry O=CC=O : call = ? 0.0

###

- Measured on: Progesterone receptor (Homo sapiens)
- Protocol text: qHTS assay to identify small molecule agonists of the progesterone receptor (PR) signaling pathway (AID 1346784); further: nearly all actives have a fitted effect of over 30% in size
- Settings: PR-UAS-bla HEK293T, beta-lactamase FRET ratio, 16 h; series mostly up to 92.4 µM
Inconclusive results are not listed. Active and inactive are the calls of the source. The call rests on the fitted dose curve.
Allowed answers: active, inactive

Look over these answered cases.
Molecule	Measured on	Category
Clc1ccc2ccccc2c1	Progesterone receptor (Homo sapiens)	inactive
CCOC(=O)NC(O)C(Cl)(Cl)Cl (stereo not given)	Progesterone receptor (Homo sapiens)	inactive

Entry NC(=O)CF : call = ? inactive

Entry CCc1cnc(C2=NC(C)(C(C)C)C(=O)N2)c(C(=O)O)c1 (stereo not given) : call = ? inactive

Entry CCCCCl : call = ? inactive

Entry N#CC(C#N)=C(C#N)C#N : call = ? inactive

Entry CC(C)C1(C)N=C(c2ncccc2C(=O)O)NC1=O (stereo not given) : call = ? inactive

Entry CC(C)(C)NCC(O)c1ccccc1Cl (stereo not given) : call = ? inactive

Entry CCCCOC(=O)CCC(=O)OCCCC : call = ? inactive

Entry C[C@]12CC[C@H]3[C@@H](CCC4=CC(=O)CC[C@@H]43)[C@@H]1CC[C@@H]2OC(=O)CCc1ccccc1 : call = ? active

Entry CCCCCCCCCCCCCCCl : call = ? inactive

Entry Cc1nc(N(C)C)nc(OC(=O)N(C)C)c1C : call = ? inactive

###

- Protocol text: qHTS assay to identify small molecule antagonists of the retinoid acid receptor (RAR) signaling pathway - cell viability counter screen (AID 1159551); further: nearly all actives have a fitted effect of over 35% in size
- Settings: C3RL4 cells viability, ATP luminescence (CellTiter-Glo), 6 h; series mostly up to 92.4 µM
- Procedure: U.S. Tox21 Program National Center for Advancing Translational Sciences [NCATS] NIH Chemical Genomics Center [NCGC] U.S. Environmental Protection Agency [EPA] National Institutes of Environmental Health Sciences [NIEHS] National Toxicology Program [NTP] U.S. Food and Drug Administration [FDA] […] Also cytotoxicity was assessed by determining the viability of cells based on the quantitation of ATP. […]
Results filed as inconclusive are left out. Active and inactive are the calls of the source. The call rests on the fitted dose curve; in most records, active means well fitted cell-killing curve with a large enough effect in the repeat runs; inconclusive means weak or mixed curves, or effect the other way; inactive means flat fitted curve, though single readings scatter.
Allowed answers: t = active, f = inactive

Look over these answered cases.
Compound	Category
CCOC(C(=O)OCCN(C)C)(c1ccccc1)c1ccccc1	f
N#CC(C#N)=Cc1ccc(O)c(O)c1	f
CCCC1CCCCN1 (stereo not drawn)	f
CC(C)(C)CC(C)(C)c1ccc(O)cc1	t
CC(C)(C)NCC(O)c1cc(Cl)c(N)c(C(F)(F)F)c1 (stereo not drawn)	f

Entry O=C(O)C(F)(F)C(F)(F)C(F)(F)C(F)(F)C(F)(F)C(F)(F)C(F)(F)C(F)(F)F : call = ? f

Entry C=C(Cl)Cl : call = ? f

Entry O=C(NC(=O)c1cc(F)c(F)cc1Cl)Nc1cc(F)ccc1N1CCC(C(=O)O)CC1 : call = ? f

Entry CCOP(=O)(SC(C)CC)N1CCSC1=O (stereo not drawn) : call = ? f

Entry O=C1NC(=O)C(=O)C(=O)N1 : call = ? f

Entry C=CC(C)(CCC=C(C)C)OC(=O)c1ccccc1N (stereo not drawn) : call = ? f

Entry O=S(=O)(c1ccccc1)c1ccccc1 : call = ? f

Entry C[Si](Cn1cncn1)(c1ccc(F)cc1)c1ccc(F)cc1 : call = ? f

###

- Protocol text: qHTS RealTime-Glo MT Cell Viability Assay in HEK293 cells - 24 hour (AID 1224886); further: top concentration of the series differs between compounds; nearly all actives have a fitted effect of over 50% in size
- Settings: RealTime-Glo luminescence; series mostly up to 76.8 µM
Records with an inconclusive call do not appear. Activity calls are given as the source filed them. Calls follow the shape of the dose curve; as a rule, active = well fitted cell-killing curve with a large enough effect in the repeat runs; inconclusive = weak or mixed curves, or effect the other way; inactive = flat fitted curve, though single readings scatter.
Attribute measured: outcome

Compound	Attribute measured	Test value
C=CCOCC1CO1 (configuration not stated)	outcome	inactive
Cc1ncc(C[n+]2csc(CCO)c2C)c(N)n1	outcome	inactive
O=C(NC(=O)c1cc(F)c(F)cc1Cl)Nc1cc(F)ccc1N1CCC(C(=O)O)CC1	outcome	inactive
COc1ccc2c(c1OC)C(=O)O[C@H]2[C@@H]1c2cc3c(cc2CCN1C)OCO3	outcome	inactive
CCCC[N+]1(C)[C@@H]2CC(OC(=O)[C@H](CO)c3ccccc3)C[C@H]1[C@@H]1O[C@@H]12 (some centres not stated)	outcome	inactive
N#CC(C#N)=C(C#N)C#N	outcome	inactive

Now consider the entry below.
Annotate the compound CCC1(CC)C(=O)NC(=O)NC1=O with its measured outcome. inactive

###

- Protocol text: qHTS RealTime-Glo MT Cell Viability Assay in HEK293 cells - 16 hour (AID 1224872); further: top concentration of the series differs between compounds; nearly all actives have a fitted effect of over 50% in size
- Settings: RealTime-Glo luminescence; series mostly up to 76.8 µM
Inconclusive results are not listed. Activity calls are given as the source filed them. Calls come from the whole dose curve; as a rule, active = well fitted cell-killing curve with a large enough effect in the repeat runs; inconclusive = weak or mixed curves, or effect the other way; inactive = flat fitted curve, though single readings scatter.
Attribute measured: outcome

Molecule	outcome
CC(C)OC(=O)Cc1ccccc1	inactive
C[C@H]1[C@@H]2Cc3ccc(O)cc3[C@@]1(C)CCN2C	inactive
O=C1CC[C@@]2(O)[C@H]3Cc4ccc(O)c5c4[C@@]2(CCN3CC2CC2)[C@H]1O5	inactive
C=CC(=O)OCC	inactive
N#CC(C#N)=Cc1ccc(O)c(O)c1	inactive
OCCSSCCO	inactive
COCc1cnc(C2=NC(C)(C(C)C)C(=O)N2)c(C(=O)O)c1 (stereo not drawn)	inactive
CCCCCl	inactive

Annotate the molecule Cc1cccc(C)c1NC1=NCCCS1 with its measured outcome. inactive

Annotate the molecule N#CC1(N=NC2(C#N)CCCCC2)CCCCC1 with its measured outcome. inactive

Annotate the molecule C=C(C)C(=O)OCCCCOC(=O)C(=C)C with its measured outcome. inactive

Annotate the molecule CCCCC(CC)CO[N+](=O)[O-] (stereo not drawn) with its measured outcome. inactive

Annotate the molecule CCCC[N+]1(C)[C@@H]2CC(OC(=O)[C@H](CO)c3ccccc3)C[C@H]1[C@@H]1O[C@@H]12 (stereo partly drawn) with its measured outcome. inactive
